Value source: PubChem BioAssay AID1345085

Tested on: Jar
Assay: Confirmatory qHTS for gynecologic anti-cancer compounds from libraries of approved drugs and bioactive compounds; note: nearly all actives have a fitted effect of over 55% in size
Settings: gynecologic cancer cell panel viability, ATPlite luminescence, 48 h; series mostly up to 57.6 µM
Records with an inconclusive call do not appear. Active and inactive are the calls of the source. Calls come from the whole dose curve; as a rule, active = well fitted cell-killing curve with a large enough effect; inconclusive = small, poorly fitted or top-dose-only effect, or effect the other way; inactive = no such curve, though single readings can be large or run the other way.
Select the matching outcome among Y for active, N for inactive

Data request: // outcome(item) with item = `CCC(=O)O[C@H]1CC[C@H]2[C@@H]3CCC4=CC(=O)CC[C@]4(C)[C@H]3CC[C@]12C`
Data returned: N

Data request: What classification did `O=C(O)Cc1ccccc1` end up with in this test?
Data returned: N

Data request: I would be grateful if you could indicate the recorded call for `CCNC(=O)C[C@@H]1N=C(c2ccc(Cl)cc2)c2cc(OC)ccc2-n2c(C)nnc21` .
Data returned: N

Data request: For Cc1sc2c(c1C)C(c1ccc(Cl)cc1)=NC(CC(=O)OC(C)(C)C)c1nnc(C)n1-2 (centres undefined) , what call appears in the results of this test?
Data returned: Y
